assay: protein stability index of a GFP-peptide fusion (GPS, HEK-293T) (PSI 1-6); higher = more stable; conditions: treatment: MLN4924 1 uM, 8 h; c terminus: a fixed tail appended;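 further: 24-mer peptide tiles fused after GFP, lentivirally expressed, FACS-sorted into six equal bins by GFP/DsRed ratio, decoded by Illumina sequencing, PSI is the read-weighted mean bin number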
# label = t if protein stability index >= 3 else f

Here are 2 sequences together with their reported answers.
VSAGGHTLSRPPPAQVPREVLKVQ [TFE3] :: t
NLQSLINNEIPDCYTFSVLITFDN [MCOLN1] :: t

Query :: Check this sequence for protein stability index at or above 3: TYSLPPFLKAVLRQERVSLYPFQI [CDS1]
Result :: f

Query :: # check: protein stability index of ATQSHSISSSSFGAEPSAPGGGGS [RTN3] is greater than or equal to 3
Result :: t

Query :: # check: protein stability index of EVIEKPENDPEWWKCKNARGQVGL [NCK2] is greater than or equal to 3
Result :: t
